- Target Under Test: SARS-CoV-2 Receptor Binding Domain (RBD) protein (SARS-CoV-2)
- Protocol Description: SPR (Carterra LSA), scFv captured via anti-V5, RBD as analyte, 1:1 fit
Quantity Measured: pKd
One number for each entry, as −log10 of the molar value.

Name the reported pKd value associated with the binder COVID19_P11_D12 (scFv, V domains shown) VH: QVQLVQSGAEVKKPGASVKVSCKASGYTFTENEMHWVRQAPGQGLEWMGIINPSGGSTSYAQKFQGRVTMTRDTSTSTVYMELSSLRSEDTAVYYCAKTRYGGNSRSRYYYYGMDVWGQGTTVTVSS VL: DIQMTQSPSSLSASVGDRVTITCRASQHISSYLNWYQQKPGKAPKLLIYAASALQSGVPSRFSGSGSGTDFTLTISSLQPEDFATYYCQQGYGTPYTFGQGTKVEIKR
8.37
